# Tested on: SNB-75
# method: NCI tumour cell line growth inhibition, 48 h
Active and inactive are the calls of the source. No stated cut-off is given here; in the data, active = GI50 up to about 1.1 µM and inactive = higher. Bridge positions count the residues as written; N and C are the ends. Square brackets hold non-standard residues; d marks the D form. Peptide text beside a SMILES is read from it. I, II: the chains in the order shown. * marks the point of attachment. Quinoxaline2carbonyl = O=C(c1cnc2ccccc2n1)*; NMeV = CN[CH](C(=O)O)C(C)C; NMeC = CN[CH](CS)C(=O)O
Form entry, call: pick from Yes (active), No (inactive)

Ask | // return assay outcome for ClC1CCC2OOC1O2 (stereo not given)
Reply | No

Ask | Answer briefly: the call reported for CC(C)(C)OC(=O)N1CCCC1C(=O)NC(c1ccccc1)c1ccccc1 (stereo not given) in this assay.
Reply | No

Ask | // param item: CN(c1ccccc1)c1c(Cl)c(=O)oc2c1ccc1occc12 ; yields the recorded call
Reply | No

Ask | Which result was noted for this molecule in the test: NNC(=O)/C(NC(=O)c1ccccc1)=C(\N)c1cccc([N+](=O)[O-])c1
Reply | No

Ask | State the result this test recorded for Cc1ccc(C)c2c1n1c(=O)n(C)c(=O)n21 .
Reply | No

Ask | Look up the recorded call for Cc1ccc(/C=C2\Cc3cccc(C)c3C2=O)c(C(=O)O)c1 in this test.
Reply | No

Ask | Name the outcome recorded for CC(=O)/C(=C/N1CCNC1=S)C(=O)Nc1ccccc1C in the assay.
Reply | No

Ask | Entry CCOC(=O)c1cn(CC)c2cc3c(cc2c1=O)SCS3 : call = ?
Reply | No

Ask | Record request — test call for CN1CC=C(c2c(N)nc(N)[nH]c2=O)CC1
Reply | No

Ask | Short answer needed: outcome of this test for COCCOCOC(CCCCO)c1cc(C)c(O[Si](C)(C)C(C)(C)C)c(C)c1 (stereo not given) ?
Reply | No

Ask | Field: outcome | Entry: CCN1CCCCCCCCCC(=N/O)/C(=N\O)C1
Reply | No

Ask | Recorded call for COC(=O)CCC(NC(=S)N/N=C(\C)c1cnc2ccccc2n1)C(=O)OC (stereo not given) ?
Reply | No

Ask | Outcome logged for COc1cc([C@@H]2c3cc4c(cc3[C@@H](OC(=O)c3cccc(N)c3)C3COC(=O)[C@@H]32)OCO4)cc(OC)c1O (stereo not given in full) in this assay:
Reply | No

Ask | Called result for CN(NC(=O)c1ccc(Cl)cc1)C1=NCCCCN1
Reply | No

Ask | Hello, I am checking results. What call was entered for CC1NC(=O)C(NC(=O)c2cnc3ccccc3n2)COC(=O)C(C(C)C)N(C)C(=O)C2CSSCC(C(=O)N(C)C(C(C)C)C(=O)OCC(NC(=O)c3cnc4ccccc4n3)C(=O)NC(C)C(=O)N2C)N(C)C1=O (stereo not given) (I: Quinoxaline2carbonyl-SA[NMeC][NMeV] / II: Quinoxaline2carbonyl-SA[NMeC][NMeV]; ester I:1-II:C, I:C-II:1; disulfide I:3-II:3; configuration not given here) ?
Reply | Yes

Ask | # lookup: test call for O=C(Cc1ccccc1)N/N=C(\C1=Nc2ccc([N+](=O)[O-])cc2NC1O)C(O)c1ccc([N+](=O)[O-])cc1 (stereo not given)
Reply | No

Ask | Write down the call the test reported for this molecule. Item: O=C(O)c1ccccc1C(=O)OCC1CCCN2CCCCC12 (stereo not given)
Reply | No

Ask | Which outcome did this test record for the molecule C[C@H](CCC(=O)O)[C@H]1CC[C@H]2[C@@H]3[C@H](O)C[C@@H]4C[C@H](O)CC[C@]4(C)[C@H]3C[C@H](O)[C@]12C ?
Reply | No

Ask | What outcome does the record of this test show for c1ccc2c(CSCc3cccc4ccccc34)cccc2c1 ?
Reply | No

Ask | In this assay, the call recorded for CN(C)CCNC(=O)c1cccc2c1nc(-c1ccncc1)c1ccccc12 was what?
Reply | No
